- Measured On: T1, human TREM2 expressed on cells (human, UniProt Q9NZC2 19-230)
- T1 sequence: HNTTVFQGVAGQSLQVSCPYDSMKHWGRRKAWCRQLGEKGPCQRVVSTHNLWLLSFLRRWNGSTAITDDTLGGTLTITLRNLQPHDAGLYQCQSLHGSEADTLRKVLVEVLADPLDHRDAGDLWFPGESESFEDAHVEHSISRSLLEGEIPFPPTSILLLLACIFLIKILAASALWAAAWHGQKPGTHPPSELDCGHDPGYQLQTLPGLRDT
- Assay Name: cell-based or functional assay
Value Kind: DC viability (AUC)
Give a bare numeral; the unit AUC is implied.

Binder	DC viability (AUC)
AL2p-38 (antibody, V domains shown, Fab and IgG formats under one id) VH: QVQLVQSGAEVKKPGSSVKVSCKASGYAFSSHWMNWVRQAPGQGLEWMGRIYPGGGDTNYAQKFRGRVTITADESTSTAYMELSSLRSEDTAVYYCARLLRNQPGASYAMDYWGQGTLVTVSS VL: GVVMTQTPLSLSVTPGQPASISCRSSRSLVHSNRYTYLHWYLQKPGQSPQLLIYKVSNRRSGVPDRFSGSGSGTDFTLKISRVEAEDVGVYYCSQSTRVPYTFGQGTKLEIK	786000
AL2p-56 (antibody, V domains shown, same VH/VL entries as AL2p-55; Fab and IgG formats under one id) VH: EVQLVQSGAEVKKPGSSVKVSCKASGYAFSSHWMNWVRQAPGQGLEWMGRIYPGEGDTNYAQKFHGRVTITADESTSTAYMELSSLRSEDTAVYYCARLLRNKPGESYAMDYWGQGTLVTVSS VL: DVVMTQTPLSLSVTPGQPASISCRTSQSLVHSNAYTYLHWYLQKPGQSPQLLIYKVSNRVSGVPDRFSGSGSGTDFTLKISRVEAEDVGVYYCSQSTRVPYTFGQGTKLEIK	643000

Okay, next one:
Data request: Reported DC viability (AUC) for AL2p-53 (antibody, V domains shown, Fab and IgG formats under one id) VH: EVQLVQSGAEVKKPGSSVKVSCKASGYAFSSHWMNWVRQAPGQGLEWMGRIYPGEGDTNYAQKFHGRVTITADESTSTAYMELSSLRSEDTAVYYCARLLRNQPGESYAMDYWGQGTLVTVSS VL: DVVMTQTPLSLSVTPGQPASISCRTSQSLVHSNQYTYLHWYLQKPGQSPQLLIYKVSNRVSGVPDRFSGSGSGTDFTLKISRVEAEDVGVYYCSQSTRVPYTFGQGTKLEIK : what is it?
Data returned: 234000
